MEASURED_ON: T1, full-length recombinant mouse PAD4 (mouse, UniProt Q9Z183 1-666)
T1 construct: mature; Full-length recombinant
PROTOCOL_SUMMARY: ELISA, coated mouse PAD4; antibody 0.0039063 ug/mL

>  <BINDER>
E9 (antibody, V domains shown, Chicken variable regions in a mouse chimeric antibody (IgG1); also called anti-PAD4 antibody E9) VH: AVTLDESGGGLQTPGGTLSLVCKGSGFTFSSYGMGWMRQAPGKGLEYVAAIRNDGSWTGYGSAVKGRATISRDNGQSTVRLQLNNLRAEDTATYYCAKTSGSSGGSVDAWGHGTEVIVS VL: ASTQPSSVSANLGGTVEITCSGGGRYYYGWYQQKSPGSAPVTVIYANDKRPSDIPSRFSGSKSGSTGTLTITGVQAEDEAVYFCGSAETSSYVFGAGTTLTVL

>  <OD 490/630 nm>
0.956

$$$$
>  <BINDER>
G8 (antibody, V domains shown, Chicken variable regions in a mouse chimeric antibody (IgG1); also called anti-PAD4 antibody G8) VH: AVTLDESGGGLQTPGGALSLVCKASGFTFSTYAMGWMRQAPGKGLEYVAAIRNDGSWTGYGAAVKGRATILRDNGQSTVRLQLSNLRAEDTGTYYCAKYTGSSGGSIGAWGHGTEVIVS VL: ASTQPSSVSANLGGTVEITCSGGNRNYYYGWYQQKSPGSAPVTLIYANDKRPSNIPSRFSGSKSGSTGTLTITGVQAEDEAVYFCGTADTGKYVFGAGTTLTVL

>  <OD 490/630 nm>
1.42

$$$$
>  <BINDER>
G6 (antibody, V domains shown, Chicken variable regions in a mouse chimeric antibody (IgG1); also called anti-PAD4 antibody G6) VH: AVTLDESGGGLQTPGGALSLVCKASGFTFSSYGMEWVRQAPGKGLEYVAAIRNDGSWTGYGAAVKGRATISRDDGQSTLRLQLNNLRAEDTATYYCAKTTGSSGGSIDAWGHGTEVIVS VL: ASTQPSSVSANLGETVKITCSGGGNYYYGWYQQKSPGSAPVTLIYANDKRPSNIPSRFSGSKSGSTGTLTITGVQAEDEAVYFCGTADTGKYVFGAGTTLTVL

>  <OD 490/630 nm>
0.55

$$$$
